UniProtKB A0AAA9SBU1: recorded pIC50 for assorted compounds
Sequence (A0AAA9SBU1 33-457): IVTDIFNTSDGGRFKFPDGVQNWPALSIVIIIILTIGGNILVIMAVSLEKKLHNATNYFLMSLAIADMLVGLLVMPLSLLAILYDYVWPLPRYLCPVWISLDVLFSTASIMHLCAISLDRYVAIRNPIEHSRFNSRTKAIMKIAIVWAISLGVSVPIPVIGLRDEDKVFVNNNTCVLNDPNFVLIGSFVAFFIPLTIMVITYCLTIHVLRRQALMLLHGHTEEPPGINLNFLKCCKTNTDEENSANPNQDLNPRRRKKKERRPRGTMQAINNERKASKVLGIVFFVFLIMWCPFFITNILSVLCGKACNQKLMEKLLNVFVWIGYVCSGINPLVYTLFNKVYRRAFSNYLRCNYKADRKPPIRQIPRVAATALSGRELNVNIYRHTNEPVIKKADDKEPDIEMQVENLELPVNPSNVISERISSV
Counter-ions that a name gives are not always drawn.
# pIC50: negative log10 of molar concentration; output just the value

For orientation, consider the following solved cases.
COc1ccc(CC2NCCc3c2[nH]c2c(C)c(C)ccc32)cc1OC (stereo not shown) [Example 19, hydrochloride]
7.68
CC[C@H](c1ccc(OC)c(OC)c1)[C@@H]1NCCc2c1[nH]c1ccc(C)cc21 (relative stereo)
6.86
Cc1ccc2[nH]c3c(c2c1)CCNC3Cc1ccc(C)c(C)c1 (stereo not shown) [Example 35, hydrochloride]
7.21

Query :: Give its pIC50 value. Item: COc1ccc([C@@H](C)[C@@H]2NCCc3c2[nH]c2ccc(C)cc32)cc1OC (relative stereo)
Result :: 6.77
